biological target: T1, human Ror2 (human, UniProt Q01974 34-403, limits assumed); assay: ELISA, human Ror2, pH 7.4
T1 construct: also called hROR2; receptor tyrosine kinase-like orphan receptor 2
T1 sequence (Q01974 34-403 limits assumed): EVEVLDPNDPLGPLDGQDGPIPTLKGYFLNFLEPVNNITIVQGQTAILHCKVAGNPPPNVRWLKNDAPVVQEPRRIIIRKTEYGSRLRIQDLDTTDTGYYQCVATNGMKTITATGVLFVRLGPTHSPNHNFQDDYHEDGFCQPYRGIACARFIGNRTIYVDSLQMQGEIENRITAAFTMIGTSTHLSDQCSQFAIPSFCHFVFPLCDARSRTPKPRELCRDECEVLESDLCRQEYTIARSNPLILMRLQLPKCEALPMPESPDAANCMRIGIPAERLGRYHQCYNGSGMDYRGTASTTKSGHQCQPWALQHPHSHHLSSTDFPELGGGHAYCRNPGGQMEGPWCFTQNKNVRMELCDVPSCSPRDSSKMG
The entries below are paired with their reported Affinity ELISA pH 7.4.
// print number alone

Entry under review: HC-A097T (antibody, V domains shown) VH: EVQLQQSGPELVKPGASVKISCKTSGYTFTEYTMHWMKQSHRKSLEWIGGINTNNGGTGYNQKFKGKATLTVDKSSSTAYMELRSLTSEDSAVYFCTRGSLYSYGNSYFDYWGQGTLVTVSS VL: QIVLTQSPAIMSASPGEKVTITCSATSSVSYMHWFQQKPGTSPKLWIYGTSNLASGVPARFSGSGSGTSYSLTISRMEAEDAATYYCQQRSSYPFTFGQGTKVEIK . Reported Affinity ELISA pH 7.4?
1.69

***
Given HC-Y111C (antibody, V domains shown) VH: EVQLQQSGPELVKPGASVKISCKTSGYTFTEYTMHWMKQSHRKSLEWIGGINTNNGGTGYNQKFKGKATLTVDKSSSTAYMELRSLTSEDSAVYFCARGSLYSYGNSYFDCWGQGTLVTVSS VL: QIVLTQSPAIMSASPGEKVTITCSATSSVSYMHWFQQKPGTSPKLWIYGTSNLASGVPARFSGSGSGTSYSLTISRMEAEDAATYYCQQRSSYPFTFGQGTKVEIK , state its recorded Affinity ELISA pH 7.4.
0.793

Consider the binder HC-T033C (antibody, V domains shown) VH: EVQLQQSGPELVKPGASVKISCKTSGYTFTEYCMHWMKQSHRKSLEWIGGINTNNGGTGYNQKFKGKATLTVDKSSSTAYMELRSLTSEDSAVYFCARGSLYSYGNSYFDYWGQGTLVTVSS VL: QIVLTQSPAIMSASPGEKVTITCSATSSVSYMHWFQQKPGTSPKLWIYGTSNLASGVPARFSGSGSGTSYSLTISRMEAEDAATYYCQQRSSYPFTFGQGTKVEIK and give its measured Affinity ELISA pH 7.4.
0.232
